The origin of these recorded values is patent US20190119389A1.

Molecular target: T1, recombinant human NRP-1 (human, UniProt O14786 22-856, limits assumed)
T1 construct: also called biotinylated human NRP-1
T1 sequence (O14786 22-856 V179A limits assumed): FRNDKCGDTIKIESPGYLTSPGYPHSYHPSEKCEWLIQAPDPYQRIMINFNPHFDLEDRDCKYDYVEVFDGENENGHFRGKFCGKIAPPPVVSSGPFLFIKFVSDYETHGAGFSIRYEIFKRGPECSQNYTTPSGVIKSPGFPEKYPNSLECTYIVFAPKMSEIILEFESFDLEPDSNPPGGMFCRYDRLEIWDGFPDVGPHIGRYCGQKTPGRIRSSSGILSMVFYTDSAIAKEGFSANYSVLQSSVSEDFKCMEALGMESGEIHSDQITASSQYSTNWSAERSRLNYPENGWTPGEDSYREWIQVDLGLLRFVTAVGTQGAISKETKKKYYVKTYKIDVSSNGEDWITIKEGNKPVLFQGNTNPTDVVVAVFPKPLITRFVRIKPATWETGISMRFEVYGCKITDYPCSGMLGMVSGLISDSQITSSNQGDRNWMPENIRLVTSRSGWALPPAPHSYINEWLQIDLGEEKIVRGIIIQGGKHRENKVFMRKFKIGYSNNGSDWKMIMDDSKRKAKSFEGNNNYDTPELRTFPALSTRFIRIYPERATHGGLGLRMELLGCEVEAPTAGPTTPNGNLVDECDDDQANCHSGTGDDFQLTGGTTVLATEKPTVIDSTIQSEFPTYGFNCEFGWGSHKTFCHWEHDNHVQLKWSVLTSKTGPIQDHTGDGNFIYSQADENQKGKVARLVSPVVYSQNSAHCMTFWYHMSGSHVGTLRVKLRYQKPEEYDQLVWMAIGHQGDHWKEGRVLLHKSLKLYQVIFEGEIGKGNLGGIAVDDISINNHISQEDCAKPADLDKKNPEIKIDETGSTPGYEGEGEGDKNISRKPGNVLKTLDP
Test: blocking ELISA: SEMA3A coated, biotinylated human NRP-1 preincubated with IgG1 antibody; competitor SEMA3A
propertyMeasured: IC50 (nM)
// note: answer is a bare numeric in nM

Form field: reported IC50 of MAB1 (antibody, V domains shown) VH: QVQLVQSGAGVKKPGASVKVSCKASGYTFRSYYMLWVRQAPGQGLEWMGIIDPSDGSTSYAQKFQGRVTMTRDTPTSTVYMELSSLRSEDTAVYYCARGARRITGYGMDVWGQGTTVTVSS VL: DIQMTQSPSSVSASVGDRVTITCRASQGISSWLAWYQQKPGKAPKLLIYAASNLQSGVPSRFSGSGSGTDFTLTISSLQPEDFATYYCQQASVFPFTFGGGTKVEIK
2.9

Try this binder next: MAB5 (antibody, V domains shown) VH: QVQLVQSGAEVKKPGASVKVSCKASGYTFTSYYMHWVRQAPGQGLEWMGIINPQGGDTSYAQKFQGRVTMTRDTSTSTVYMELSSLRSEDTAVYYCARDRGMYYASGFGPWGQGTLVTVSS VL: EIVMTQSPGTLSLSPGERATLSCRASQSVSSSYLAWYQQKPGQAPRLLIYGASNRATGIPDRFSGSGSGTDFTLTISRLEPEDFAVYYCQQLSSFPITFGGGTKVEIK
5.9

From here, focus on the item given below.
Form field: reported IC50 of MAB3 (antibody, V domains shown) VH: QAQLVQSGAEVKKPGASVKVSCKASGYTFSRYYMHWVRQAPGQGLEWMGIINPLGGSTLYAQKFQGRVTMTRDTSTSTVYMELSSLRSEDTAVYYCARDLGYYGSGMHAWGQGTLVTVSS VL: DIQMTQSPSSVSASVGDRVTITCRASQGISRWLAWYQQKPGKAPKLLIYAASSLQSGVPSRFSGSGSGTDFTLTISSLQPEDFATYYCQQANLLPFTFGGGTKVEIK
0.6
